Values from PubChem BioAssay (NCI)

Test system: SF-268 CNS
Test: NCI-60 one-dose screen, 48 h
Settings: 10 µM unless noted
About 83,000 compounds went through this panel and 20% of them were active in at least one assay; those are over-represented in the sample as a whole. The source made the active and inactive calls. How the source made its calls: active means growth percent below 10; inactive means the rest.
Your answer must be one of the following: active, inactive

Observe how each entry below is paired with its result.
compound=COc1ccc(/C=C\c2cc(OC)c(OC)c(OC)c2)cc1OCC(=O)Nc1nc2ccccc2s1 tested_target="SF-268 CNS" class_name=inactive
compound="COc1cc(C2=Nc3c(N)nc(N)nc3NC(c3cccc(Nc4ccnc5cc(C(F)(F)F)ccc45)c3)C2)cc(OC)c1OC (stereo unspecified)" tested_target="SF-268 CNS" class_name=inactive

Now let's try a different one.
For COc1ccc(C2CC(=O)Oc3c(OC)c4c(c(OC)c32)OCO4)cc1 (stereo unspecified) , which call appears in the assay record?
inactive
